Measured values drawn from the supplement of paper PMC11246515 for this set.

Assay: total protein half-life in vivo (active degradation + dilution); higher = more stable protein
Details: wild type E. coli NCM3722; growth: C-lim chemostat; doubling time 3 h

SEQUENCE CODE	total protein half-life in vivo
MSNLTGTDKSVILLMTIGEDRAAEVFKHLSQREVQTLSAAMANVTQISNKQLTDVLAEFEQEAEQFAALNINANDYLRSVLVKALGEERAASLLEDILETRDTASGIETLNFMEPQSAADLIRDEHPQIIATILVHLKRAQAADILALFDERLRHDVMLRIATFGGVQPAALAELTEVLNGLLDGQNLKRSKMGGVRTAAEIINLMKTQQEEAVITAVREFDGELAQKIIDEMFLFENLVDVDDRSIQRLLQEVDSESLLIALKGAEQPLREKFLRNMSQRAADILRDDLANRGPVRLSQVENEQKAILLIVRRLAETGEMVIGSGEDTYV [P0ABZ1]	2.31 h
MFKRRYVTLLPLFVLLAACSSKPKPTETDTTTGTPSGGFLLEPQHNVMQMGGDFANNPNAQQFIDKMVNKHGFDRQQLQEILSQAKRLDSVLRLMDNQAPTTSVKPPSGPNGAWLRYRKKFITPDNVQNGVVFWNQYEDALNRAWQVYGVPPEIIVGIIGVETRWGRVMGKTRILDALATLSFNYPRRAEYFSGELETFLLMARDEQDDPLNLKGSFAGAMGYGQFMPSSYKQYAVDFSGDGHINLWDPVDAIGSVANYFKAHGWVKGDQVAVMANGQAPGLPNGFKTKYSISQLAAAGLTPQQPLGNHQQASLLRLDVGTGYQYWYGLPNFYTITRYNHSTHYAMAVWQLGQAVALARVQ	3.61 h

----------
Listing of recorded total protein half-life in vivo by entry.
Assay: total protein half-life in vivo (active degradation + dilution); higher = more stable protein
Settings: wild type E. coli NCM3722; growth: N-lim chemostat; doubling time 6 h
READOUT: total protein half-life in vivo (h)

SEQUENCE CODE	READOUT	UNITS OF MEASURE	TEST VALUE
MAMHLNENLDDNGEMHDINVTPFIDVMLVLLIIFMVAAPLATVDVKVNLPASTSTPQPRPEKPVYLSVKADNSMFIGNDPVTDETMITALNALTEGKKDTTIFFRADKTVDYETLMKVMDTLHQAGYLKIGLVGEETAKAK [P0ABV2]	total protein half-life in vivo	h	1.12
MSESVQSNSAVLVHFTLKLDDGTTAESTRNNGKPALFRLGDASLSEGLEQHLLGLKVGDKTTFSLEPDAAFGVPSPDLIQYFSRREFMDAGEPEIGAIMLFTAMDGSEMPGVIREINGDSITVDFNHPLAGQTVHFDIEVLEIDPALEA [P0AEM0]	total protein half-life in vivo	h	4.44
MPHNPIRVVVGPANYFSHPGSFNHLHDFFTDEQLSRAVWIYGKRAIAAAQTKLPPAFGLPGAKHILFRGHCSESDVQQLAAESGDDRSVVIGVGGGALLDTAKALARRLGLPFVAVPTIAATCAAWTPLSVWYNDAGQALHYEIFDDANFMVLVEPEIILNAPQQYLLAGIGDTLAKWYEAVVLAPQPETLPLTVRLGINNAQAIRDVLLNSSEQALSDQQNQQLTQSFCDVVDAIIAGGGMVGGLGDRFTRVAAAHAVHNGLTVLPQTEKFLHGTKVAYGILVQSALLGQDDVLAQLTGAYQRFHLPTTLAELEVDINNQAEIDKVIAHTLRPVESIHYLPVTLTPDTLRAAFKKVESFKA	total protein half-life in vivo	h	4.38
MTPTIELICGHRSIRHFTDEPISEAQREAIINSARATSSSSFLQCSSIIRITDKALREELVTLTGGQKHVAQAAEFWVFCADFNRHLQICPDAQLGLAEQLLLGVVDTAMMAQNALIAAESLGLGGVYIGGLRNNIEAVTKLLKLPQHVLPLFGLCLGWPADNPDLKPRLPASILVHENSYQPLDKGALAQYDEQLAEYYLTRGSNNRRDTWSDHIRRTIIKESRPFILDYLHKQGWATR	total protein half-life in vivo	h	3.89

----------
Test: total protein half-life in vivo (active degradation + dilution); higher = more stable protein
Details: wild type E. coli NCM3722; growth: C-lim chemostat; doubling time 3 h

SEQUENCE CODE	total protein half-life in vivo
MAAVNLRHIEIFHAVMTAGSLTEAAHLLHTSQPTVSRELARFEKVIGLKLFERVRGRLHPTVQGLRLFEEVQRSWYGLDRIVSAAESLREFRQGELSIACLPVFSQSFLPQLLQPFLARYPDVSLNIVPQESPLLEEWLSAQRHDLGLTETLHTPAGTERTELLSLDEVCVLPPGHPLAVKKVLTPDDFQGENYISLSRTDSYRQLLDQLFTEHQVKRRMIVETHSAASVCAMVRAGVGISVVNPLTALDYAASGLVVRRFSIAVPFTVSLIRPLHRPSSALVQAFSGHLQAGLPKLVTSLDAILSSATTA	3.2 h
MFSALRHRTAALALGVCFILPVHASSPKPGDFANTQARHIATFFPGRMTGTPAEMLSADYIRQQFQQMGYRSDIRTFNSRYIYTARDNRKSWHNVTGSTVIAAHEGKAPQQIIIMAHLDTYAPLSDADADANLGGLTLQGMDDNAAGLGVMLELAERLKNTPTEYGIRFVATSGEEEGKLGAENLLKRMSDTEKKNTLLVINLDNLIVGDKLYFNSGVKTPEAVRKLTRDRALAIARSHGIAATTNPGLNKNYPKGTGCCNDAEIFDKAGIAVLSVEATNWNLGNKDGYQQRAKTPAFPAGNSWHDVRLDNHQHIDKALPGRIERRCRDVMRIMLPLVKELAKAS	2.58 h
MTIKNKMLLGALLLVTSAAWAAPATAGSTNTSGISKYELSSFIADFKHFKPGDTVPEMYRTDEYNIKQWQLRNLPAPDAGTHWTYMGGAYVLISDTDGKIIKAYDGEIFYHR	3.09 h
MERFDAIIIGAGAAGMFCSALAGQAGRRVLLIDNGKKPGRKILMSGGGRCNFTNLYVEPGAYLSQNPHFCKSALARFTQWDFIDLVNKHGIAWHEKTLGQLFCDDSAQQIVDMLVDECEKGNVTFRLRSEVLSVAKDETGFTLDLNGMTVGCEKLVIATGGLSMPGLGASPFGYKIAEQFGLNVLPTRAGLVPFTLHKPLLEELQVLAGVAVPSVITAENGTVFRENLLFTHRGLSGPAVLQISSYWQPGEFVSINLLPDVDLETFLNEQRNAHPNQSLKNTLAVHLPKRLVERLQQLGQIPDVSLKQLNVRDQQALISTLTDWRVQPNGTEGYRTAEVTLGGVDTNELSSRTMEARKVPGLYFIGEVMDVTGWLGGYNFQWAWSSAWACAQDLIAAKSS	3.28 h
MRLLPLVAAATAAFLVVACSSPTPPRGVTVVNNFDAKRYLGTWYEIARFDHRFERGLEKVTATYSLRDDGGLNVINKGYNPDRGMWQQSEGKAYFTGAPTRAALKVSFFGPFYGGYNVIALDREYRHALVCGPDRDYLWILSRTPTISDEVKQEMLAVATREGFDVSKFIWVQQPGS [P0A901]	2.82 h
MRLEFSIYRYNPDVDDAPRMQDYTLEADEGRDMMLLDALIQLKEKDPSLSFRRSCREGVCGSDGLNMNGKNGLACITPISALNQPGKKIVIRPLPGLPVIRDLVVDMGQFYAQYEKIKPYLLNNGQNPPAREHLQMPEQREKLDGLYECILCACCSTSCPSFWWNPDKFIGPAGLLAAYRFLIDSRDTETDSRLDGLSDAFSVFRCHSIMNCVSVCPKGLNPTRAIGHIKSMLLQRNA	3.17 h
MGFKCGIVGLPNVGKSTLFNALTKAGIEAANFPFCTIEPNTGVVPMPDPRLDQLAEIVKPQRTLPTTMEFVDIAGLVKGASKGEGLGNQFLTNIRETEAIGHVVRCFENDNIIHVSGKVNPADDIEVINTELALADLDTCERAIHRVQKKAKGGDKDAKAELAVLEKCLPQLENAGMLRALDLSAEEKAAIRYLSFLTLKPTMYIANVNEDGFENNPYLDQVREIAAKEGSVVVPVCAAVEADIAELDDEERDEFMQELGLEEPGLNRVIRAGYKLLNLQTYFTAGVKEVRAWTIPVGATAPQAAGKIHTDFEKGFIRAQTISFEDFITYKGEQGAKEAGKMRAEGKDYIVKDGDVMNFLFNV [P0ABU2]	3.61 h
MDLIYFLIDFILHIDVHLAELVAEYGVWVYAILFLILFCETGLVVTPFLPGDSLLFVAGALASLETNDLNVHMMVVLMLIAAIVGDAVNYTIGRLFGEKLFSNPNSKIFRRSYLDKTHQFYEKHGGKTIILARFVPIVRTFAPFVAGMGHMSYRHFAAYNVIGALLWVLLFTYAGYFFGTIPMVQDNLKLLIVGIIVVSILPGVIEIIRHKRAAARAAK [P0ABP6]	2.65 h
MSQLPGLSRETRESIAMYHLRVPQTEEELERYYQFRWEMLRKPLHQPKGSERDAWDAMAHHQMVVDEQGNLVAVGRLYINADNEASIRFMAVHPDVQDKGLGTLMAMTLESVARQEGVKRVTCSAREDAVEFFAKLGFVNQGEITTPTTTPIRHFLMIKPVATLDDILHRGDWCAQLQQAWYEHIPLSEKMGVRIQQYTGQKFITTMPETGNQNPHHTLFAGSLFSLATLTGWGLIWLMLRERHLGGTIILADAHIRYSKPISGKPHAVADLGALSGDLDRLARGRKARVQMQVEIFGDETPGAVFEGTYIVLPAKPFGPYEEGGNEEE [P0ADQ2]	2.86 h
MSIRIIPQDELGSSEKRTADMIPPLLFPRLKNLYNRRAERLRELAENNPLGDYLRFAALIAHAQEVVLYDHPLEMDLTARIKEASAQGKPPLDIHVLPRDKHWQKLLMALIAELKPEMSGPALAVIENLEKASTQELEDMASALFASDFSSVSSDKAPFIWAALSLYWAQMANLIPGKARAEYGEQRQYCPVCGSMPVSSMVQIGTTQGLRYLHCNLCETEWHVVRVKCSNCEQSGKLHYWSLDDEQAAIKAESCDDCDTYLKILYQEKDPKIEAVADDLASLVLDARMEQEGYARSSINPFLFPGEGE	1.81 h
